B1: Caulobacter ParB omega fusion; a variant is named by its letters at X, in order, B8GW30 (parent)
chain: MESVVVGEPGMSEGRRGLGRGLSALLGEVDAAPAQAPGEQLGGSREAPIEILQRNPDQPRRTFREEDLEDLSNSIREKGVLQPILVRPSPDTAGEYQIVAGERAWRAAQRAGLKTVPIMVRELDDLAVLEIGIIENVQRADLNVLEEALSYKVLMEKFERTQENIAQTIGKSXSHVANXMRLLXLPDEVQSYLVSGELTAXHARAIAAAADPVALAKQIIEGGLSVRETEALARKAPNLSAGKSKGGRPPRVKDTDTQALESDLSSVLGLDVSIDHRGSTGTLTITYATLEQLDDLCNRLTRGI

- Variants of: B1
- ASSAY INFO: one-hybrid fitness for binding NBS DNA (the Noc-binding site; scaled: cognate 1, non-cognate 0); higher = stronger binding
- EXPERIMENTAL CONDITIONS: with NBS DNA site
Over roughly 81,000 sequences, “one-hybrid fitness for binding NBS DNA” has its median near -0.1; the highest 2% begin near 0.36. This is one part of a sample in which the highest values are shown more often than they occur.
Catalogue of variants with associated one-hybrid fitness for binding NBS DNA

Previously resolved entries follow.
MUTANT NAME	MEASURE	VALUE MEASURED
QSCQ	one-hybrid fitness for binding NBS DNA	≤ 0.2
RTSC	one-hybrid fitness for binding NBS DNA	≤ 0.2
RPSR	one-hybrid fitness for binding NBS DNA	≤ 0.2

Ask: Assign one-hybrid fitness for binding NBS DNA to the following record: `HTHP`
Reply: ≤ 0.2

Ask: Assign one-hybrid fitness for binding NBS DNA to the following record: `QSWH`
Reply: ≤ 0.2

Ask: Assign one-hybrid fitness for binding NBS DNA to the following record: `RTDR`
Reply: 0.282

Ask: Assign one-hybrid fitness for binding NBS DNA to the following record: `RTNP`
Reply: ≤ 0.2

Ask: Assign one-hybrid fitness for binding NBS DNA to the following record: `RSGT`
Reply: 0.425

Ask: Assign one-hybrid fitness for binding NBS DNA to the following record: `QRCQ`
Reply: 0.382

Ask: Assign one-hybrid fitness for binding NBS DNA to the following record: `ENTF`
Reply: ≤ 0.2

Ask: Assign one-hybrid fitness for binding NBS DNA to the following record: `CTYS`
Reply: ≤ 0.2
